# System: MCF7
# protocol-summary: Cytotoxicity against human MCF7 assessed as cell viability after 48 hrs by Hoechst 33342 staining based assay
# Assay type: functional
# run-conditions: MCF7, 48 h
value-kind: IC50 (µM)

compound: COc1cccc(/C=C/C(=O)c2c(OC)cc(OC)cc2OC)c1
value-kind: IC50
reading: 9.4

compound: COc1cc(O)c(C(=O)/C=C/c2ccccc2)c(OC)c1 [FLAVOKAWAIN B]
value-kind: IC50
reading: 15.5

compound: COc1cc(OC)c(C(=O)/C=C/c2ccccc2OC)c(OC)c1
value-kind: IC50
reading: 8.9

compound: COc1cc(OC)c(C(=O)/C=C/c2ccccc2SC)c(OC)c1
value-kind: IC50
reading: 9.3

compound: COc1cccc(/C=C/C(=O)c2c(O)cc(OC)cc2OC)c1
value-kind: IC50
reading: 10.3

compound: COc1cc(O)c(C(=O)/C=C/c2ccc(F)cc2)c(OC)c1
value-kind: IC50
reading: 8.8

compound: COc1cc(O)c(C(=O)/C=C/c2ccccc2OC)c(OC)c1
value-kind: IC50
reading: 10.5

compound: CC[C@H](CO)Nc1nc(NCc2ccccc2)c2ncn(C(C)C)c2n1 [SELICICLIB]
value-kind: IC50
reading: 10.2

compound: COc1cc(OC)c(C(=O)/C=C/c2ccc(Br)cc2)c(OC)c1
value-kind: IC50
reading: 9.5

compound: Oc1cccc(-c2nc(N3CCOCC3)c3oc4ncccc4c3n2)c1 [PI-103]
value-kind: IC50
reading: 13.3

compound: COc1cc(OC)c(C(=O)/C=C/c2ccccc2)c(OC)c1
value-kind: IC50
reading: 9.4

compound: COc1cc(OC)c(C(=O)/C=C/c2ccc(F)cc2)c(OC)c1
value-kind: IC50
reading: 7.7

compound: COc1cc(O)c(C(=O)/C=C/c2ccccc2SC)c(OC)c1
value-kind: IC50
reading: 15.9

---

Here the recorded Activity is given for each entry.
# Test system: HaCaT
# protocol-summary: Cell cycle arrest in human HaCaT cells harboring […] p53 assessed as accumulation at S phase at 10 uM measured after 48 hrs by Hoechst/BrdU staining based fluorescence assay (reference value: 52.3%)
# Type: functional

molecule: Oc1cccc(-c2nc(N3CCOCC3)c3oc4ncccc4c3n2)c1 [PI-103]
Activity, %: 20
--
molecule: COc1cc(O)c(C(=O)/C=C/c2ccccc2OC)c(OC)c1
Activity, %: 49
--
molecule: COc1cccc(/C=C/C(=O)c2c(OC)cc(OC)cc2OC)c1
Activity, %: 19
--
molecule: COc1cc(O)c(C(=O)/C=C/c2ccccc2SC)c(OC)c1
Activity, %: 51
--
molecule: COc1cc(OC)c(C(=O)/C=C/c2ccc(F)cc2)c(OC)c1
Activity, %: 20
--
molecule: COc1cc(OC)c(C(=O)/C=C/c2ccc(Br)cc2)c(OC)c1
Activity, %: 24

---

Property: Activity_index; scope: individual compounds
# Test system: Caco-2
# protocol-summary: Cell cycle arrest in human Caco2 cells assessed as mitotic index at 10 uM measured after 48 hrs by Hoechst staining based fluorescence assay (reference value: 3.6)
# Type: functional

compound: COc1cc(O)c(C(=O)/C=C/c2ccccc2)c(OC)c1 [FLAVOKAWAIN B]
Activity_index: 9.7
//
compound: COc1cc(OC)c(C(=O)/C=C/c2ccc(Br)cc2)c(OC)c1
Activity_index: 30.7
//
compound: COc1cc(OC)c(C(=O)/C=C/c2ccc(F)cc2)c(OC)c1
Activity_index: 32
//
compound: COc1cc(O)c(C(=O)/C=C/c2ccc(F)cc2)c(OC)c1
Activity_index: 6.3
//
compound: COc1cc(OC)c(C(=O)/C=C/c2ccccc2SC)c(OC)c1
Activity_index: 29.3
//
compound: COc1cc(O)c(C(=O)/C=C/c2ccccc2SC)c(OC)c1
Activity_index: 6
//
compound: COc1cccc(/C=C/C(=O)c2c(O)cc(OC)cc2OC)c1
Activity_index: 14.4
//
compound: Oc1cccc(-c2nc(N3CCOCC3)c3oc4ncccc4c3n2)c1 [PI-103]
Activity_index: 1.4
//
compound: COc1cc(OC)c(C(=O)/C=C/c2ccccc2)c(OC)c1
Activity_index: 38.7
//
compound: COc1cc(O)c(C(=O)/C=C/c2ccccc2OC)c(OC)c1
Activity_index: 6.8
//
compound: COc1cccc(/C=C/C(=O)c2c(OC)cc(OC)cc2OC)c1
Activity_index: 36.8
